- condition-details: buffer; pH 7.4; 6.0 h; 150.0 µM
quantity: solubility kinetic

Some solved cases for reference:
NCC(=O)Nc1cncc(-c2nn3c(=O)cc(N4CCNCC4)nc3s2)c1    > 57 µg/mL
COc1cc2c(c(OC)c1OC)-c1ccc(SC)c(=O)cc1C(N)CC2 (stereo not given)    > 55 µg/mL
CN(C)C(=O)c1cccc(-c2csc(N3CCC(C(N)=O)CC3)n2)c1    > 53 µg/mL
CCCN1C(CC(C)C)=NS(=O)(=O)c2cc(NC(=O)c3cccs3)ccc21    < 1 µg/mL

Attention now turns to another entry.
# solubility kinetic of Cn1ccc2c(C(=O)NCC3CCC(=O)N3)nc(-c3ccccc3C#N)cc21 (stereo not given) = 52.4 µg/mL
